Target chain: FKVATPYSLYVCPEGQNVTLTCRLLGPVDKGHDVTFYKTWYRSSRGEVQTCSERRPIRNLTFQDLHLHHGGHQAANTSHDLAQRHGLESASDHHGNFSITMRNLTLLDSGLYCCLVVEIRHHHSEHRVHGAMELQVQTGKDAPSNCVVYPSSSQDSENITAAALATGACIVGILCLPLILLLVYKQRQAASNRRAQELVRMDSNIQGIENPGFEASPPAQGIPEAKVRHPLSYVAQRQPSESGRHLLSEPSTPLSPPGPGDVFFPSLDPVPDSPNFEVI
metric name: Kd (nM)
Give the quantity in nM, number only.

The compound CC(=O)NCCNCc1cccc(-c2nc3c(C)c(-c4ccccc4)ccc3[nH]2)c1 showed Kd equal to 153

// provenance: patent US20230406829A1
